Test system: SF-539 CNS
Experimental details: NCI tumour cell line growth inhibition, 48 h
Reported property: TGI

Exercise: State, for SF-539 CNS, measured TGI of the compound listed here: CSC(=S)OC1CC(n2cnc3c(NC(=O)c4ccccc4)ncnc32)OC1CO[Si](C)(C)C(C)(C)C (stereo not drawn)
Solution: > 46.4 µM

Exercise: State, for SF-539 CNS, measured TGI of the compound listed here: "[N-]=[N+]=NCCCn1c2c(c3ccc([N+](=O)[O-])cc3c1=O)C(=O)c1cc(F)ccc1-2"
Solution: > 100 µM

Here's the next entry for you.
Exercise: State, for SF-539 CNS, measured TGI of the compound listed here: "OC(c1ccc2c(c1)OCO2)c1ccc2c(c1)OCO2"
Solution: > 100 µM

Just for reference, PubChem BioAssay (NCI) is where these values come from.
